molecular target: Neuronal acetylcholine receptor; assay: Binding affinity towards nicotinic acetylcholine receptor (nACh) using [3H](-)-nicotine as radioligand in rat brain; type: tissue-based
Please note: Ki exactly at 5 nM is condition not met. Only values below 5 nM get condition met.

Some entries whose results are on file:
CC(C)[N+](C)(C)CCOc1cccnc1.[Cl-]
condition not met
C[N+](C)(C)CCOc1ccc(Cl)nc1.[I-]
condition met
CC[N+](C)(C)CCOc1cccnc1.[Cl-]
condition met
C[N+](C)(C)CCOc1cccnc1.[Cl-]
condition met
COc1ccc(OCC[N+](C)(C)C)cn1
condition not met

In: Problem: For the molecule CCC[N+](C)(C)CCOc1cccnc1.[Cl-] , is Ki under 5 nM?
Out: condition not met
